# Tested on: NCI-H69 (Small Cell Lung Carcinoma)
# Experimental details: combination Emax (second highest fraction inhibited in the dose matrix, 72 h); higher = more inhibition; extreme values may be limits of the assay
Measured endpoint: combination Emax

{"columns": ["Compound", "Result value"],
 "data": [
  ["CN(CCO)CC[C@H](CSc1ccccc1)Nc1ccc(S(=O)(=O)NC(=O)c2ccc(N3CCC([C@@H](O)c4ccccc4-c4ccc(Cl)cc4)CC3)cc2)cc1S(=O)(=O)C(F)(F)F [AZD4320] + Cc1cc2ncnn2cc1Nc1ncc2c(n1)n(C1CCOCC1)c(=O)n2C [AZD7648] (first compound max 1 µM, 7x7, partner max 10 µM)", 0.882],
  ["CN(CCO)CC[C@H](CSc1ccccc1)Nc1ccc(S(=O)(=O)NC(=O)c2ccc(N3CCC([C@@H](O)c4ccccc4-c4ccc(Cl)cc4)CC3)cc2)cc1S(=O)(=O)C(F)(F)F [AZD4320] + C=CCn1c(=O)c2cnc(Nc3ccc(N4CCN(C)CC4)cc3)nc2n1-c1cccc(C(C)(C)O)n1 [AZD1775] (first compound max 1 µM, partner max 1 µM)", 0.858]
]}

Here is the next item to consider.
QUERY: Provide combination Emax, system NCI-H69 (Small Cell Lung Carcinoma), entry CN(CCO)CC[C@H](CSc1ccccc1)Nc1ccc(S(=O)(=O)NC(=O)c2ccc(N3CCC([C@@H](O)c4ccccc4-c4ccc(Cl)cc4)CC3)cc2)cc1S(=O)(=O)C(F)(F)F [AZD4320] + CN(C)CCCOc1ccc(-c2ccc3ncc4c(c3c2)n(C2CCOCC2)c(=O)n4C)cn1 [AZD0156] (first compound max 1 µM, 7x7, partner max 1 µM)
RESULT: 0.86

----------
# System: EN (Endometrial Carcinoma)
# Experimental details: combination Emax (second highest fraction inhibited in the dose matrix, 72 h); higher = more inhibition; extreme values may be limits of the assay
Measured endpoint: combination Emax

{"columns": ["Molecule", "combination Emax"],
 "data": [
  ["N#Cc1cnc(Nc2cc(NC[C@H]3CNCCO3)c(C(F)(F)F)cn2)cn1 [SRA737] + C=CCn1c(=O)c2cnc(Nc3ccc(N4CCN(C)CC4)cc3)nc2n1-c1cccc(C(C)(C)O)n1 [AZD1775] (first compound max 10 µM, partner max 1 µM)", 0.696],
  ["CN(CCO)CC[C@H](CSc1ccccc1)Nc1ccc(S(=O)(=O)NC(=O)c2ccc(N3CCC([C@@H](O)c4ccccc4-c4ccc(Cl)cc4)CC3)cc2)cc1S(=O)(=O)C(F)(F)F [AZD4320] + C[C@@H]1COCCN1C2=NC(=NC(=C2)C3(CC3)[S@](=N)(=O)C)C4=C5C=CNC5=NC=C4 [AZD6738] (first compound max 1 µM, 7x7, partner max 10 µM)", 0.69]
]}

Here is the next item to consider.
QUERY: Give me measured combination Emax, please, for this molecule: NC1(C(=O)N[C@@H](CCO)c2ccc(Cl)cc2)CCN(c2ncnc3[nH]ccc23)CC1 [Capivasertib] + CC(C)n1c(=O)n(C)c2cnc3cc(F)c(-c4ccc(OCCCN5CCCCC5)nc4)cc3c21 [AZD1390] (first compound max 10 µM, 7x7, partner max 0.3 µM)
RESULT: 0.574

----------
# Test system: LU-139 (Small Cell Lung Carcinoma);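 note: after 72 h of two-drug dosing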
# Experimental details: Bliss excess, mean over the matrix (fraction); higher = more synergy
Measured Bliss excess by item
Please state the value as a number alone, without comment.

{"columns": ["Compound", "Target desc", "Bliss excess"],
 "data": [
  ["CC1(C)CCC(CN2CCN(c3ccc(C(=O)NS(=O)(=O)c4ccc(NCC5CCOCC5)c([N+](=O)[O-])c4)c(Oc4cnc5[nH]ccc5c4)c3)CC2)=C(c2ccc(Cl)cc2)C1 [Venetoclax] + C=CCn1c(=O)c2cnc(Nc3ccc(N4CCN(C)CC4)cc3)nc2n1-c1cccc(C(C)(C)O)n1 [AZD1775] (first compound max 1 µM, partner max 1 µM)", "LU-139 (Small Cell Lung Carcinoma)", 0.0207]
]}

QUERY: Give me measured Bliss excess, please, for this compound: CN(CCO)CC[C@H](CSc1ccccc1)Nc1ccc(S(=O)(=O)NC(=O)c2ccc(N3CCC([C@@H](O)c4ccccc4-c4ccc(Cl)cc4)CC3)cc2)cc1S(=O)(=O)C(F)(F)F [AZD4320] + CN(C)CCCOc1ccc(-c2ccc3ncc4c(c3c2)n(C2CCOCC2)c(=O)n4C)cn1 [AZD0156] (first compound max 1 µM, 7x7, partner max 1 µM)
RESULT: -0.0164
